Cited source for all entries: ChEMBL document CHEMBL4043301

Measured log10 EC50 values are reported for all entries that follow.
# ASSAY SYSTEM: UniProtKB P49286
# Sequence (P49286 whole entry): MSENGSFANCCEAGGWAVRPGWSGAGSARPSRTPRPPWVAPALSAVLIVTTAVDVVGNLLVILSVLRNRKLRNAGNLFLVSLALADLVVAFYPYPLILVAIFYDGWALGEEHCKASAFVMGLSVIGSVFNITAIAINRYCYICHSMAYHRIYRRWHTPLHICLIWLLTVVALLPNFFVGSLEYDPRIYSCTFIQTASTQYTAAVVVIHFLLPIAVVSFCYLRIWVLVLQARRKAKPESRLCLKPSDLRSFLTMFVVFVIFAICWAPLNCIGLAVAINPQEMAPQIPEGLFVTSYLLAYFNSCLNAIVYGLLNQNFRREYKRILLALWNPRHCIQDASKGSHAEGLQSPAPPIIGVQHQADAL
# PROTOCOL SUMMARY: Intrinsic activity at human MT2 receptor expressed in CHO cell membranes after 1 hr by [35S]GTPgammaS binding assay
Log10 applied to EC50; unit prior to transform: nM.

# count of solved cases: 4
CC(=O)NCC1Cc2ccccc2N(CCc2ccccc2)C1 (racemic) : 1.90
CC(=O)NCC1Cc2ccccc2N(Cc2ccccc2)C1 (racemic) : 0.48
CCC(=O)NC1Cc2ccccc2N(c2ccccc2)C1 (racemic) : 0.00
CCN1CC(CNC(C)=O)Cc2ccccc21 (racemic) : 0.85

Turning to the following molecule.
GET /values?readout=log10 EC50&item= CC(=O)NCC1Cc2ccccc2N(C)C1 (racemic)
1.00

---

# ASSAY SYSTEM: Melatonin receptor type 1A (Homo sapiens)
# PROTOCOL SUMMARY: Intrinsic activity at human MT1 receptor expressed in CHO cell membranes after 1 hr by [35S]GTPgammaS binding assay
# Type: functional
REPORTED ENDPOINT: EC50

Worked cases, EC50 given:
CCC(=O)NC1Cc2ccccc2N(c2ccccc2)C1 (racemic) : 0.02 µM
CC(=O)NCC1Cc2ccccc2N(c2ccccc2)C1 (racemic) : > 10 µM
CC(=O)NCC1Cc2ccccc2N(C)C1 (racemic) : > 10 µM

Pending compound:
# input compound: CCN1CC(CNC(C)=O)Cc2ccccc21 (racemic) ; wanted: its EC50
> 10 µM

---

# Organism: Homo sapiens
# PROTOCOL SUMMARY: Selectivity ratio of Ki for human MT1 receptor to Ki for human MT2 receptor
REPORTED ENDPOINT: Ratio Ki
Give only the figure.

Would you please look over these solved cases?
CCC(=O)NC[C@@H]1CN(C)c2ccccc2[C@@H]1c1ccccc1 (racemic) : 7.1
CCC(=O)NC1Cc2ccccc2N(c2ccccc2)C1 (racemic) : 11
CC(=O)NCC1Cc2ccccc2N(C)C1 (racemic) : 5.5

Could you share which Ratio Ki value was measured for CCC(=O)NC[C@@H]1CCc2ccccc2[C@H]1c1ccccc1 (racemic) ?
270

Looking for the measured Ratio Ki of CCN1CC(CNC(C)=O)Cc2ccccc21 (racemic) , can you help?
20

Recorded Ratio Ki for CC(=O)NCC1Cc2ccccc2N(CCc2ccccc2)C1 (racemic) , please?
5.2

Param item = CCC(=O)NCC1=C(c2ccccc2)c2ccccc2CC1 ; retrieve measured Ratio Ki.
7.4

Item CC(=O)NCC1Cc2ccccc2N(c2ccccc2)C1 (racemic) has what recorded Ratio Ki?
10

Requested field: Ratio Ki. Item: CCC(=O)NC[C@@H]1CCc2ccccc2[C@@H]1c1ccccc1 (racemic)
16

Item CCC(=O)NC1Cc2ccccc2N(Cc2ccccc2)C1 (racemic) has what recorded Ratio Ki?
149

State the recorded Ratio Ki for this entry: CC(=O)NCC1CNc2ccccc2C1 (racemic)
3.9

What value of Ratio Ki has been recorded for this entry: CC(=O)NCC1Cc2ccccc2N(Cc2ccccc2)C1 (racemic)
59

---

# ASSAY SYSTEM: Melatonin receptor type 1A (Homo sapiens, UniProt P48039)
# Sequence (P48039 whole entry): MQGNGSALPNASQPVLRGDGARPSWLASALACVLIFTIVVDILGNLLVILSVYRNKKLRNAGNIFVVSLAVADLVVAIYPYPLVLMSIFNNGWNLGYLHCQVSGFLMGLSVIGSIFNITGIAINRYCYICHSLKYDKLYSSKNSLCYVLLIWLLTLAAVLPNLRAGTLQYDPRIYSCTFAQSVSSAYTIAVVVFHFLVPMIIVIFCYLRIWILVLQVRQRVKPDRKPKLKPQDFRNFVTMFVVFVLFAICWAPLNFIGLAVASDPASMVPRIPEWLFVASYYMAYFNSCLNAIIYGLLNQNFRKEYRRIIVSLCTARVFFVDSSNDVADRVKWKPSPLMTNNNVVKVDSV
# PROTOCOL SUMMARY: Intrinsic activity at human MT1 receptor expressed in CHO cell membranes after 1 hr by [35S]GTPgammaS binding assay
# Type: functional
# Emax annotations
// return numeric value only (unit: %, not printed)

CCC(=O)NC[C@@H]1CCc2ccccc2[C@H]1c1ccccc1 (racemic) : 61
CCC(=O)NC1Cc2ccccc2N(c2ccccc2)C1 (racemic) : 29
CC(=O)NCC1Cc2ccccc2N(c2ccccc2)C1 (single isomer, unassigned; (-)) : 30
CC(=O)NCC1Cc2ccccc2N(c2ccccc2)C1 (racemic) : 27
CCC(=O)NC[C@@H]1CN(C)c2ccccc2[C@@H]1c1ccccc1 (racemic) : 82

# Emax lookup, item CCC(=O)NCC1=C(c2ccccc2)c2ccccc2CC1
16

# lookup: Emax of CCC(=O)NC[C@@H]1CCc2ccccc2[C@@H]1c1ccccc1 (racemic)
56

// returns reported Emax for input CC(=O)NCC1Cc2ccccc2N(c2ccccc2)C1 (stereo in doubt; (+)-15e)
25
